The measurements presented in this section are drawn from patent US20240190849A1.

Target: FGFR2 (Homo sapiens)
Construct: made in house; host or cells: E. coli derived from BL21, infected with T7 phage
Sequence (P21802 22-821): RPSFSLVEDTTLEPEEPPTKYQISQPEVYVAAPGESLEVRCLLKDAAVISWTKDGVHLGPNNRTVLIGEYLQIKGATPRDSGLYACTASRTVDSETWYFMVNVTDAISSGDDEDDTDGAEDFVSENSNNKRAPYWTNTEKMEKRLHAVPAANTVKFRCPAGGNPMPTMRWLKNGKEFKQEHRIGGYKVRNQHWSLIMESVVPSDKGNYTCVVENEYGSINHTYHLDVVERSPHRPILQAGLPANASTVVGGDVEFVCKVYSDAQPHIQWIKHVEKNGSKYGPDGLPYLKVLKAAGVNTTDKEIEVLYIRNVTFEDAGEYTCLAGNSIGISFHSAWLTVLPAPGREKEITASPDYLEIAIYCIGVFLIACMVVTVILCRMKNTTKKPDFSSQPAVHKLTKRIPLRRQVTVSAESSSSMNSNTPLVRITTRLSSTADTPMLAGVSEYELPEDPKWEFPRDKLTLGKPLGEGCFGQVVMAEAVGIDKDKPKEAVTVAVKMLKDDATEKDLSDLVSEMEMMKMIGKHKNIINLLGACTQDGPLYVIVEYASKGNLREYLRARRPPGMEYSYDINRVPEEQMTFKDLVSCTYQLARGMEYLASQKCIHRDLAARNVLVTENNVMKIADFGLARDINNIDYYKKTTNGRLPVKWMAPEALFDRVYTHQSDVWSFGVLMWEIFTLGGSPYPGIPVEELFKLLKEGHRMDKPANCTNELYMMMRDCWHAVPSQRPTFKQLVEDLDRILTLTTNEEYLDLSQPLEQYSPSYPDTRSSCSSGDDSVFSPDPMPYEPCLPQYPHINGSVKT
Experiment: Kinase binding assay (kinase-tagged T7 phage, affinity beads, qPCR readout), FGFR2
Conditions: FGFR binding data
QUANTITY_MEASURED: Kd

>>> val("C=CC(=O)Nc1ccc2c(c1)c(C)cn2-c1nc(Nc2cn(C)nc2C)ncc1F")
"0.1 to 100 nM"

Readout Kd for "C=CC(=O)Nc1ccc2c(ccn2-c2nc(Nc3cnn(C)c3)ncc2Cl)c1C" , test system FGFR2 (Homo sapiens), was 100 to 250 nM

Item "C=C(F)C(=O)Nc1cnc2c(c1)c(C)cn2-c1nc(Nc2ccn(C)n2)ncc1C" was tested on FGFR2 (Homo sapiens); the reported Kd is > 1000 nM

Kd on FGFR2 (Homo sapiens) for "C#CC(=O)Nc1cnc2c(c1)c(C)cn2-c1nc(Nc2cnn(CCO)c2)ncc1F" is 0.1 to 100 nM
